The origin of these recorded values is PubChem BioAssay (NCI).

assay.notes: NCI Yeast Anticancer Drug Screen. Data for the mgt1 strain (AID 153)
condition.description: S. cerevisiae mgt1 mutant growth inhibition; at 33.0 µM
This is part of a sample that, as a whole, favours compounds with a hit. Of some 79,000 tested, about 15% had one in any assay. Activity calls are given as the source filed them. Cut-off read from the data, not from the text of the source: active = growth inhibition above about 70%; inactive = the rest.
Your answer must be one of the following: active, inactive

A selection of reference data follows.
Input: Record lookup: outcome of this test for "O=[N+]([O-])c1cc(S(=O)(=O)Nc2ccccc2)ccc1Nc1ccccc1" ?
Output: active

Input: Record lookup: outcome of this test for CCCCNC1CCC2(SCCS2)c2[nH]c3ccccc3c21 (stereo not drawn) ?
Output: inactive

Input: Record lookup: outcome of this test for O=C1c2cccnc2C(=O)C2C3C=CC(C3)C12 (stereo not drawn) ?
Output: active

Input: Record lookup: outcome of this test for O=C(O)CCCC1CCCc2c1ccc1ccccc21 (stereo not drawn) ?
Output: inactive

Input: Record lookup: outcome of this test for "CC(C)/C(Cl)=N\OC(=O)Nc1ccc(F)cc1F" ?
Output: inactive

Input: Record lookup: outcome of this test for "COc1cc(/C=C2\CCC/C(=C\c3ccc(O)c(OC)c3)C2=O)ccc1O" ?
Output: inactive

Input: Record lookup: outcome of this test for CCCCN(CCCC)CCC(O)c1cc2c(Cl)cc(Cl)cc2c2cc(C(F)(F)F)ccc12 (stereo not drawn) ?
Output: active

Input: Record lookup: outcome of this test for "C=C(Cl)COC(=O)Nc1cccc(Cl)c1" ?
Output: inactive

More entries:
Input: Record lookup: outcome of this test for CCOC(=O)C1=C(C)NC(C)=C(C(=O)OCCNC(=O)c2ccc(N=[N+]=[N-])cc2)C1c1ccccc1C(F)(F)F (stereo not drawn) ?
Output: inactive

Input: Record lookup: outcome of this test for Cn1c(=O)c2c(nc(N)n2C2OC(CO)C(O)C2O)n(C)c1=O (stereo not drawn) ?
Output: inactive

Input: Record lookup: outcome of this test for "Cc1cc(C)c(NC(=S)NC(=O)c2ccccc2)cc1C" ?
Output: inactive

Input: Record lookup: outcome of this test for "Cc1c2cc[n+](Cc3ccc(I)cc3)cc2c(C)c2c1[nH]c1ccccc12" ?
Output: active

Input: Record lookup: outcome of this test for "O=C(O)CNC(=S)Nc1ccccc1" ?
Output: active
